Sourced from the supplement of paper PMC10627819

Would you mind telling me the reported Bliss interaction score of each entry?
# Test system: S. aureus DSM 20231
# Experiment Notes: Bliss interaction score (quartile over a dose matrix) (fitness difference); higher = more antagonism (negative = synergy)
Please give only the number in your answer, with no unit.

### Prompt Fill in reported Bliss interaction score for this entry: CC[C@H]1OC(=O)[C@H](C)[C@@H](O[C@H]2C[C@@](C)(OC)[C@@H](O)[C@H](C)O2)[C@H](C)[C@@H](O[C@@H]2O[C@H](C)C[C@H](N(C)C)[C@H]2O)[C@](C)(O)C[C@@H](C)C(=O)[C@H](C)[C@@H](O)[C@]1(C)O [Erythromycin] + CCC[C@@H]1C[C@@H](C(=O)N[C@@H]([C@H]2O[C@H](SC)[C@H](O)[C@@H](O)[C@H]2O)[C@@H](C)O)N(C)C1 [Lincomycin]
### Response -0.0609

### Prompt Fill in reported Bliss interaction score for this entry: CO[C@@H]1[C@@H](OC(N)=O)[C@@H](O)[C@H](Oc2ccc3c(O)c(NC(=O)c4ccc(O)c(CC=C(C)C)c4)c(=O)oc3c2C)OC1(C)C [Novobiocin] + Cc1cc(NS(=O)(=O)c2ccc(N)cc2)no1 [Sulfamethoxazol]
### Response 0.0483

### Prompt Fill in reported Bliss interaction score for this entry: CC(=O)NC[C@H]1CN(c2ccc(N3CCOCC3)c(F)c2)C(=O)O1 [Linezolid] + Cc1onc(-c2ccccc2)c1C(=O)N[C@@H]1C(=O)N2[C@@H]1SC(C)(C)[C@@H]2C(=O)O [Oxacillin]
### Response -0.0365

### Prompt Fill in reported Bliss interaction score for this entry: CN[C@H](CC(C)C)C(=O)N[C@H]1C(=O)N[C@@H](CC(N)=O)C(=O)N[C@H]2C(=O)N[C@H]3C(=O)N[C@H](C(=O)N[C@H](C(=O)O)c4cc(O)cc(O)c4-c4cc3ccc4O)[C@H](O[C@H]3C[C@](C)(N)[C@@H](O)[C@H](C)O3)c3ccc(c(Cl)c3)Oc3cc2cc(c3O[C@@H]2O[C@H](CO)[C@@H](O)[C@H](O)[C@H]2O[C@H]2C[C@](C)(NCc3ccc(-c4ccc(Cl)cc4)cc3)[C@@H](O)[C@H](C)O2)Oc2ccc(cc2Cl)[C@H]1O [Oritavancin] + Cc1cc(NS(=O)(=O)c2ccc(N)cc2)no1 [Sulfamethoxazol]
### Response -0.0575

### Prompt Fill in reported Bliss interaction score for this entry: CC[C@H]1OC(=O)[C@H](C)[C@@H](O[C@H]2C[C@@](C)(OC)[C@@H](O)[C@H](C)O2)[C@H](C)[C@@H](O[C@@H]2O[C@H](C)C[C@H](N(C)C)[C@H]2O)[C@](C)(O)C[C@@H](C)C(=O)[C@H](C)[C@@H](O)[C@]1(C)O [Erythromycin] + CO[C@H]1/C=C/O[C@@]2(C)Oc3c(C)c(O)c4c(O)c(c(/C=N/N5CCN(C)CC5)c(O)c4c3C2=O)NC(=O)/C(C)=C\C=C\[C@H](C)[C@H](O)[C@@H](C)[C@@H](O)[C@@H](C)[C@H](OC(C)=O)[C@@H]1C [Rifampicin]
### Response 0.0363

### Prompt Fill in reported Bliss interaction score for this entry: CN[C@@H]1[C@H](O)[C@H](NC)[C@H]2O[C@@]3(O)C(=O)C[C@@H](C)O[C@H]3O[C@@H]2[C@H]1O [Spectinomycin] + Cc1c(Cl)cccc1Nc1ccccc1C(=O)O [Tolfenamic]
### Response 0.145

### Prompt Fill in reported Bliss interaction score for this entry: CN[C@@H]1[C@H](O)[C@H](NC)[C@H]2O[C@@]3(O)C(=O)C[C@@H](C)O[C@H]3O[C@@H]2[C@H]1O [Spectinomycin] + CN[C@@H]1[C@H](O[C@H]2[C@H](O[C@H]3[C@H](O)[C@@H](O)[C@H](N=C(N)N)[C@@H](O)[C@@H]3N=C(N)N)O[C@@H](C)[C@]2(O)C=O)O[C@@H](CO)[C@H](O)[C@H]1O [Streptomycin]
### Response 0.126

### Prompt Fill in reported Bliss interaction score for this entry: CO[C@@]12[C@H](COC(N)=O)C3=C(C(=O)C(C)=C(N)C3=O)N1C[C@@H]1N[C@@H]12 [MitomycinC] + CO[C@H]1/C=C/O[C@@]2(C)Oc3c(C)c(O)c4c(O)c(c(/C=N/N5CCN(C)CC5)c(O)c4c3C2=O)NC(=O)/C(C)=C\C=C\[C@H](C)[C@H](O)[C@@H](C)[C@@H](O)[C@@H](C)[C@H](OC(C)=O)[C@@H]1C [Rifampicin]
### Response -0.0914

### Prompt Fill in reported Bliss interaction score for this entry: CC[C@H]1OC(=O)[C@H](C)[C@@H](O[C@H]2C[C@@](C)(OC)[C@@H](O)[C@H](C)O2)[C@H](C)[C@@H](O[C@@H]2O[C@H](C)C[C@H](N(C)C)[C@H]2O)[C@](C)(O)C[C@@H](C)C(=O)[C@H](C)[C@@H](O)[C@]1(C)O [Erythromycin] + C[C@@H](O)[C@H]1C(=O)N2C(C(=O)O)=C(SCCNC=N)C[C@H]12 [Imipenem]
### Response 0.0185

### Prompt Fill in reported Bliss interaction score for this entry: CC(=O)NC[C@H]1CN(c2ccc(N3CCOCC3)c(F)c2)C(=O)O1 [Linezolid] + O=C1CN(/N=C/c2ccc([N+](=O)[O-])o2)C(=O)N1 [Nitrofurantoin]
### Response -0.0317

### Prompt Fill in reported Bliss interaction score for this entry: CN[C@@H]1[C@H](O)[C@H](NC)[C@H]2O[C@@]3(O)C(=O)C[C@@H](C)O[C@H]3O[C@@H]2[C@H]1O [Spectinomycin] + CC1=C\[C@@H](O)CC(=O)Cc2nc(co2)C(=O)N2CCC=C2C(=O)O[C@H](C(C)C)[C@H](C)/C=C/C(=O)NC\C=C\1 [Virginiamycin M1]
### Response -0.0719

### Prompt Fill in reported Bliss interaction score for this entry: CO[C@@]12[C@H](COC(N)=O)C3=C(C(=O)C(C)=C(N)C3=O)N1C[C@@H]1N[C@@H]12 [MitomycinC] + CN[C@@H]1[C@H](O[C@H]2[C@H](O[C@H]3[C@H](O)[C@@H](O)[C@H](N=C(N)N)[C@@H](O)[C@@H]3N=C(N)N)O[C@@H](C)[C@]2(O)C=O)O[C@@H](CO)[C@H](O)[C@H]1O [Streptomycin]
### Response -0.117

###

# Tested on: S. aureus Newman
# Experiment Notes: Bliss interaction score (quartile over a dose matrix) (fitness difference); higher = more antagonism (negative = synergy)
Observed Property: Bliss interaction score

### Prompt Fill in reported Bliss interaction score for this entry: CC[C@H]1OC(=O)[C@H](C)[C@@H](O[C@H]2C[C@@](C)(OC)[C@@H](O)[C@H](C)O2)[C@H](C)[C@@H](O[C@@H]2O[C@H](C)C[C@H](N(C)C)[C@H]2O)[C@](C)(O)C[C@@H](C)C(=O)[C@H](C)[C@@H](O)[C@]1(C)O [Erythromycin] + Cc1onc(-c2ccccc2)c1C(=O)N[C@@H]1C(=O)N2[C@@H]1SC(C)(C)[C@@H]2C(=O)O [Oxacillin]
### Response 0.0255

### Prompt Fill in reported Bliss interaction score for this entry: CO[C@H]1/C=C/O[C@@]2(C)Oc3c(C)c(O)c4c(O)c(c(/C=N/N5CCN(C)CC5)c(O)c4c3C2=O)NC(=O)/C(C)=C\C=C\[C@H](C)[C@H](O)[C@@H](C)[C@@H](O)[C@@H](C)[C@H](OC(C)=O)[C@@H]1C [Rifampicin] + COc1cc(Cc2cnc(N)nc2N)cc(OC)c1OC [Trimethoprim]
### Response -0.0473

###

# Test system: S. aureus Newman
# Experiment Notes: fitness (endpoint OD595 vs no drug) (fraction); higher = more growth
# Assay Setup: first compound 75 µg/mL; partner 0.125 µg/mL; main component drawn
Observed Property: fitness
Please give only the number in your answer, with no unit.

### Prompt Fill in reported fitness for this entry: CC[C@H](C)[C@H](N)C1=N[C@H](C(=O)N[C@@H](CC(C)C)C(=O)N[C@H](CCC(=O)O)C(=O)N[C@H](C(=O)N[C@H]2CCCCNC(=O)[C@H](CC(N)=O)NC(=O)[C@@H](CC(=O)O)NC(=O)[C@H](Cc3cnc[nH]3)NC(=O)[C@@H](Cc3ccccc3)NC(=O)[C@H]([C@@H](C)CC)NC(=O)[C@@H](CCCN)NC2=O)[C@@H](C)CC)CS1 [Bacitracin] + Cn1nnc(-c2ccc(-c3ccc(N4C[C@H](CO)OC4=O)cc3F)cn2)n1 [Tedizolid]
### Response 0.0056

###

# Tested on: S. pneumoniae D39V
# Experiment Notes: fitness (endpoint OD595 vs no drug) (fraction); higher = more growth
# Assay Setup: first compound 0.2 µg/mL; partner 4 µg/mL
Observed Property: fitness
Please give only the number in your answer, with no unit.

### Prompt Fill in reported fitness for this entry: CO[C@H]1/C=C/O[C@@]2(C)Oc3c(C)c(O)c4c(O)c(c(/C=N/N5CCN(C)CC5)c(O)c4c3C2=O)NC(=O)/C(C)=C\C=C\[C@H](C)[C@H](O)[C@@H](C)[C@@H](O)[C@@H](C)[C@H](OC(C)=O)[C@@H]1C [Rifampicin] + CN[C@@H]1[C@H](O[C@H]2[C@H](O[C@H]3[C@H](O)[C@@H](O)[C@H](N=C(N)N)[C@@H](O)[C@@H]3N=C(N)N)O[C@@H](C)[C@]2(O)C=O)O[C@@H](CO)[C@H](O)[C@H]1O [Streptomycin]
### Response 0.0964

### Prompt Fill in reported fitness for this entry: CO[C@H]1/C=C/O[C@@]2(C)Oc3c(C)c(O)c4c(O)c(c(/C=N/N5CCN(C)CC5)c(O)c4c3C2=O)NC(=O)/C(C)=C\C=C\[C@H](C)[C@H](O)[C@@H](C)[C@@H](O)[C@@H](C)[C@H](OC(C)=O)[C@@H]1C [Rifampicin] + CN[C@@H]1[C@H](O)[C@H](NC)[C@H]2O[C@@]3(O)C(=O)C[C@@H](C)O[C@H]3O[C@@H]2[C@H]1O [Spectinomycin]
### Response 0.0634

### Prompt Fill in reported fitness for this entry: CC(=O)NC[C@H]1CN(c2ccc(N3CCOCC3)c(F)c2)C(=O)O1 [Linezolid] + CN[C@@H]1[C@H](O[C@H]2[C@H](O[C@H]3[C@H](O)[C@@H](O)[C@H](N=C(N)N)[C@@H](O)[C@@H]3N=C(N)N)O[C@@H](C)[C@]2(O)C=O)O[C@@H](CO)[C@H](O)[C@H]1O [Streptomycin]
### Response 0.781

### Prompt Fill in reported fitness for this entry: CO[C@H]1/C=C/O[C@@]2(C)Oc3c(C)c(O)c4c(O)c(c(/C=N/N5CCN(C)CC5)c(O)c4c3C2=O)NC(=O)/C(C)=C\C=C\[C@H](C)[C@H](O)[C@@H](C)[C@@H](O)[C@@H](C)[C@H](OC(C)=O)[C@@H]1C [Rifampicin] + Cc1cc(NS(=O)(=O)c2ccc(N)cc2)no1 [Sulfamethoxazol]
### Response 0.104
